Item-by-item account of inhibition at 1 µM
Tested on: porcine kidney-derived LLC-PK1 cells
measurementNotes: Protective effect against cell injury of porcine kidney-derived LLC-PK1 cells (2), oxidized LDL-induced LDH leakage
Format: cell-based
measurementConditions: Sus scrofa, LLC-PK1; 1 μM; test compounds added 16 hours before addition of oxidized LDL; oxidized LDL 91 μg/ml, 6 hours; read-out: % cytoprotection 1)
measuredEndpoint: inhibition at 1 µM (%)

In [3]: df
Out[3]:
                                    compound  observedmeasurement
 0  CC(C)Cc1c(O)c(C(C)(C)C)cc2c1CC1(CCCCCC1)O2                 53.4
 1  CC1Cc2cc(O)c(C(C)(C)C)cc2O1 (centres unmarked)                 99.7
 2  CCC(C)c1c(O)c(C(C)(C)C)cc2c1CC1(CCCCCC1)O2 (centres unmarked)                 13.6
 3      CCC1(CC)Cc2c(cc(C(C)C)c(O)c2C(C)C)O1                 99.9
 4  C=CC(C)c1c(O)c(C(C)(C)C)cc2c1CC1(CCCCCC1)O2 (centres unmarked)                 77.9
 5     CC(C)c1cc2c(c(C(C)(C)C)c1O)CC(C)(C)O2                 98.1
 6         Cc1c(O)c(C(C)(C)C)cc2c1CC(C)(C)O2                  104
 7        CC(C)c1cc2c(c(C(C)C)c1O)CC(C)(C)O2                  100
 8     Cc1c(O)c(C(C)(C)C)cc2c1CC1(CCCCCC1)O2                  103
 9        CC(C)(C)c1cc2c(cc1O)CC1(CCCCCC1)O2                  104
10     CC(C)c1c(O)c(C(C)(C)C)cc2c1CC(C)(C)O2                  100
11   CCCc1c(O)c(C(C)(C)C)cc2c1CC1(CCCCCC1)O2                 47.7
12    CCc1c(O)c(C(C)(C)C)cc2c1CC1(CCCCCC1)O2                  103
13  CC1(C)Cc2c(c(C(C)(C)C)cc(O)c2C(C)(C)C)O1                  100

###

Test system: cultured mesangial cells
measurementNotes: Protective effect against cell injury of cultured mesangial cells, oxidized LDL-induced LDH leakage
Assay type: cell-based, rats
measurementConditions: Rattus norvegicus, Mesangial cell; 1 μM; test compounds added immediately before addition of oxidized LDL; oxidized LDL 91 μg/ml, 8 hours; read-out: % cytoprotection 2)
measuredEndpoint: inhibition at 1 µM (%)

In [3]: df
Out[3]:
                                   molecule              systemtested    measuredendpoint  readingunit  observedmeasurement
0        CC(C)(C)c1cc(O)c(C(C)(C)C)c2c1OCC2  cultured mesangial cells  inhibition at 1 µM            %                 40.3
1  CC1Cc2cc(O)c(C(C)(C)C)cc2O1 (stereo not drawn)  cultured mesangial cells  inhibition at 1 µM            %                 18.7
2     Cc1c(O)c(C(C)(C)C)cc2c1CC1(CCCCCC1)O2  cultured mesangial cells  inhibition at 1 µM            %                 34.4

###

System: porcine kidney-derived LLC-PK1 cells
measurementNotes: Protective effect against cell injury of porcine kidney-derived LLC-PK1 cells (2), oxidized LDL-induced LDH leakage
Assay type: cell-based
measurementConditions: Sus scrofa, LLC-PK1; 10 μM; test compounds added 16 hours before addition of oxidized LDL; oxidized LDL 91 μg/ml, 6 hours; read-out: % cytoprotection 1)
measuredEndpoint: inhibition at 10 µM (%)

In [3]: df
Out[3]:
                                   compound  observedmeasurement
0  CCC(C)c1c(O)c(C(C)(C)C)cc2c1CC1(CCCCCC1)O2 (stereo not shown)                  100
1  CC(C)Cc1c(O)c(C(C)(C)C)cc2c1CC1(CCCCCC1)O2                  102
2     CC(C)c1c(O)c(C(C)(C)C)cc2c1CC(C)(C)O2                  104
3  CC1(C)Cc2c(c(C(C)(C)C)cc(O)c2C(C)(C)C)O1                 98.3

###

Item-by-item account of inhibition at 10 µM
Tested on: porcine kidney-derived LLC-PK1 cells
measurementNotes: Protective effect against cell injury of porcine kidney-derived LLC-PK1 cells (2), oxidized LDL-induced LDH leakage
Assay type: cell-based
measurementConditions: Sus scrofa, LLC-PK1; 10 μM; test compounds added 16 hours before addition of oxidized LDL; oxidized LDL 91 μg/ml, 6 hours; read-out: % cytoprotection 1)
measuredEndpoint: inhibition at 10 µM (%)

In [3]: df
Out[3]:
                                   compound     measuredendpoint  observedmeasurement
0        CC(C)(C)c1cc2c(cc1O)CC1(CCCCCC1)O2  inhibition at 10 µM                  105
1  CC1Cc2cc(O)c(C(C)(C)C)cc2O1 (centres unmarked)  inhibition at 10 µM                  103
2    CCc1c(O)c(C(C)(C)C)cc2c1CC1(CCCCCC1)O2  inhibition at 10 µM                  104
3     CC(C)c1cc2c(c(C(C)(C)C)c1O)CC(C)(C)O2  inhibition at 10 µM                 97.3
4      CCC1(CC)Cc2c(cc(C(C)C)c(O)c2C(C)C)O1  inhibition at 10 µM                 99.9

Origin of the recorded values: patent US6403639B1
